# System: SF-295
# PROTOCOL_TEXT: NCI-60 one-dose assay
# Format: cell-based
# CONDITION_DETAILS: Homo sapiens, SF-295 (CNS cancer), read-out: Cell Inhibition Percent
Response key: Fulfilled means inhibition at 10 µM >= 1%; Not fulfilled means inhibition at 10 µM < 1%.

# bool: inhibition at 10 µM of `O=C(NN=Cc1ccc(Cl)cc1Cl)c1ccc2[nH]c(-c3ccc(Cl)cc3)nc2c1` >= 1%
Fulfilled

How about this compound: `CN(C)c1ccc(C=NNC(=O)c2ccc3[nH]c(-c4ccc(Cl)cc4)nc3c2)cc1`
Fulfilled

How about this compound: `COc1ccc(C=NNC(=O)c2ccc3[nH]c(-c4ccc(Cl)cc4)nc3c2)cc1`
Fulfilled

How about this compound: `CCn1c(-c2ccc3[nH]c(-c4ccc(Cl)cc4)nc3c2)n[nH]c1=S`
Not fulfilled

How about this compound: `O=C(NN=Cc1ccccc1)c1ccc2[nH]c(-c3ccc(Cl)cc3)nc2c1`
Fulfilled

How about this compound: `O=C(NN=Cc1ccc(F)cc1)c1ccc2[nH]c(-c3ccc(Cl)cc3)nc2c1`
Fulfilled

How about this compound: `O=C(N/N=C/c1ccc(O)cc1)c1ccc2[nH]c(-c3ccc(Cl)cc3)nc2c1`
Not fulfilled

How about this compound: `O=C(NN=Cc1ccc([N+](=O)[O-])cc1)c1ccc2[nH]c(-c3ccc(Cl)cc3)nc2c1`
Fulfilled

How about this compound: `COc1cc(/C=N/NC(=O)c2ccc3[nH]c(-c4ccc(Cl)cc4)nc3c2)cc(OC)c1OC`
Fulfilled

How about this compound: `O=C(NN=Cc1ccc(Cl)cc1)c1ccc2[nH]c(-c3ccc(Cl)cc3)nc2c1`
Fulfilled

* * *

Could you please report measured inhibition at 10 µM for the items listed next?
# Test system: K-562
# PROTOCOL_TEXT: NCI-60 one-dose assay
# Type: cell-based
# CONDITION_DETAILS: Homo sapiens, K562, K-562 (Leukemia), read-out: Cell Inhibition Percent

Given the compound `O=C(NN=Cc1ccccc1)c1ccc2[nH]c(-c3ccc(Cl)cc3)nc2c1` , what is its reported inhibition at 10 µM?
7.37%

How about this compound: `O=C(NN=Cc1ccc(F)cc1)c1ccc2[nH]c(-c3ccc(Cl)cc3)nc2c1`
61.2%

How about this compound: `O=C(N/N=C/c1ccc(O)cc1)c1ccc2[nH]c(-c3ccc(Cl)cc3)nc2c1`
0.25%

How about this compound: `O=C(NN=Cc1ccc(Cl)cc1)c1ccc2[nH]c(-c3ccc(Cl)cc3)nc2c1`
91.3%

How about this compound: `COc1ccc(C=NNC(=O)c2ccc3[nH]c(-c4ccc(Cl)cc4)nc3c2)cc1`
68.1%

How about this compound: `CCn1c(-c2ccc3[nH]c(-c4ccc(Cl)cc4)nc3c2)n[nH]c1=S`
1.43%

How about this compound: `CN(C)c1ccc(C=NNC(=O)c2ccc3[nH]c(-c4ccc(Cl)cc4)nc3c2)cc1`
5.96%

How about this compound: `COc1cc(/C=N/NC(=O)c2ccc3[nH]c(-c4ccc(Cl)cc4)nc3c2)cc(OC)c1OC`
67.3%

How about this compound: `O=C(NN=Cc1ccc(Cl)cc1Cl)c1ccc2[nH]c(-c3ccc(Cl)cc3)nc2c1`
53.7%

How about this compound: `O=C(NN=Cc1ccc([N+](=O)[O-])cc1)c1ccc2[nH]c(-c3ccc(Cl)cc3)nc2c1`
90.3%

How about this compound: `CCNC(=S)NNC(=O)c1ccc2[nH]c(-c3ccc(Cl)cc3)nc2c1`
88.4%

Reference source: paper PMC10819888
